Please go through the items and note down their EC50.
Target: mutant Hex A (Homo sapiens, UniProt P06865+P07686)
Settings: Hex A rescue, determined from graphs of FIGS. 5-7
One number for each entry, in µM.

compound=CCCc1nc(N)nc(N)c1-c1ccc(C(F)(F)F)cc1 measured_quantity=EC50 u=µM reported_result=11.6

Can you give me EC50 for all of these, one by one?
1. CCCc1nc(N)nc(N)c1-c1ccc(F)cc1 [ksh3-33a]
2. CCc1nc(N)nc(N)c1-c1ccc(C(F)(F)F)cc1 [jts16]
3. CCc1nc(N)nc(N)c1-c1cccc(C)c1 [ksh3-19d]

12.5
5.14
6.67
